B1: glmS ribozyme (parent)
chain: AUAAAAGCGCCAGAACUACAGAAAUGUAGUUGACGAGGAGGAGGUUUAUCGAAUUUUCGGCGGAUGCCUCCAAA

Variants of: B1
Assay: self-cleavage kobs at 640 uM GlcN6P; higher = faster cleavage; RNA array
Settings: with glucosamine-6-phosphate
This sample holds only a part of the variants without activity.
observed_property: self-cleavage kobs at 640 uM GlcN6P

Here are 3 variants together with their reported answers.
| mutant_id | self-cleavage kobs at 640 uM GlcN6P |
| --- | --- |
| C34U C68U C70U | < 1e-05 s⁻¹ |
| G37A U54C C70U | 0.000626 s⁻¹ |
| C16G U47G | 0.000307 s⁻¹ |

// each variant listed below needs its self-cleavage kobs at 640 uM GlcN6P
1. A36U G44A
2. G13U C16U A33C C68U
3. G7A U31A

1: < 1e-05 s⁻¹; 2: < 1e-05 s⁻¹; 3: < 1e-05 s⁻¹
